target.entity: PSG G322A (PSD-95)
experimental.details: FP displacement (competition) of FITC-15 AA CRIPT by library peptide, IC50 and Ki
test.conditions: read-out: IC50 (µM), PSG G322A; FP displacement of FITC-15 AA CRIPT probe by PSD library peptide; protein PSG G322A
reported.endpoint: IC50

INSERT INTO assay_data (sample_smiles, target_entity, reported_endpoint, recorded_measurement) VALUES
  ('CC(=O)N[C@@H](Cc1ccc(O)cc1)C(=O)N[C@@H](CC(C)C)C(=O)N[C@@H](C)C(=O)N[C@@H](CC(=O)O)C(=O)N[C@@H](CCC(=O)O)C(=O)N[C@H](C(=O)N[C@@H](CO)C(=O)N[C@@H](C)C(=O)N[C@@H](CO)C(=O)N[C@@H](CC(C)C)C(=O)N[C@@H](C)C(=O)N[C@@H](CCCCN)C(=O)N[C@@H](CCC(N)=O)C(=O)NCC(=O)N[C@@H](CC(C)C)C(=O)O)C(C)C', 'PSG G322A (PSD-95)', 'IC50', '489 µM'),
  ('CC[C@H](C)[C@H](NC(=O)[C@H](CCCNC(=N)N)NC(=O)[C@H](CCCNC(=N)N)NC(=O)[C@H](CCC(N)=O)NC(=O)[C@H](CC(N)=O)NC(=O)[C@H](CC(C)C)NC(=O)CNC(=O)[C@H](CO)NC(=O)[C@H](Cc1ccc(O)cc1)NC(=O)[C@H](CC(C)C)NC(=O)[C@H](CC(=O)O)NC(=O)[C@H](CCCNC(=N)N)NC(=O)[C@H](CCC(N)=O)NC(=O)CNC(=O)[C@H](Cc1ccc(O)cc1)NC(C)=O)C(=O)O', 'PSG G322A (PSD-95)', 'IC50', '757 µM'),
  ('CC[C@H](C)[C@H](NC(=O)[C@H](CC(N)=O)NC(=O)CNC(=O)CNC(=O)[C@H](CO)NC(=O)[C@H](Cc1ccc(O)cc1)NC(=O)[C@H](CCC(=O)O)NC(=O)[C@@H]1CCCN1C(=O)[C@H](Cc1ccc(O)cc1)NC(C)=O)C(=O)N[C@H](C(=O)N[C@@H](CCCNC(=N)N)C(=O)N[C@H](C(=O)N[C@@H](CO)C(=O)N[C@@H](C)C(=O)N[C@@H](CC(C)C)C(=O)O)C(C)C)C(C)C', 'PSG G322A (PSD-95)', 'IC50', '564 µM');

###

target.entity: PSG G322A G335A (PSD-95)
experimental.details: FP displacement (competition) of FITC-15 AA CRIPT by library peptide, IC50 and Ki
test.conditions: read-out: IC50 (µM), PSG G322A G335A; FP displacement of FITC-15 AA CRIPT probe by acetylated PSD library peptide (P-13 to P0 plus extra N-terminal Y)
reported.endpoint: IC50 (µM)

INSERT INTO results (sample_smiles, target_entity, recorded_measurement) VALUES
  ('CSCC[C@H](NC(=O)[C@H](CCC(N)=O)NC(=O)[C@H](CC(=O)O)NC(=O)[C@H](Cc1ccc(O)cc1)NC(=O)[C@H](CC(=O)O)NC(=O)[C@@H]1CCCN1C(=O)[C@H](CO)NC(=O)[C@H](CCCCN)NC(=O)[C@H](CC(C)C)NC(=O)[C@H](Cc1ccc(O)cc1)NC(C)=O)C(=O)N[C@@H](CO)C(=O)N[C@@H](CO)C(=O)N[C@@H](CO)C(=O)N1CCC[C@H]1C(=O)N[C@@H](CS)C(=O)O', 'PSG G322A G335A (PSD-95)', 2450),
  ('CC(=O)N[C@@H](Cc1ccc(O)cc1)C(=O)N[C@@H](CC(N)=O)C(=O)N[C@@H](CO)C(=O)N[C@H](C(=O)N[C@@H](CC(N)=O)C(=O)N[C@@H](CC(C)C)C(=O)N1CCC[C@H]1C(=O)N[C@@H](Cc1c[nH]cn1)C(=O)NCC(=O)N[C@@H](Cc1c[nH]cn1)C(=O)N[C@@H](CO)C(=O)N[C@H](C(=O)N[C@H](C(=O)N[C@@H](CCCNC(=N)N)C(=O)N[C@H](C(=O)O)C(C)C)[C@@H](C)O)[C@@H](C)O)[C@@H](C)O', 'PSG G322A G335A (PSD-95)', 43),
  ('CC(=O)N[C@@H](Cc1ccc(O)cc1)C(=O)N[C@H](C(=O)N[C@@H](CCC(=O)O)C(=O)N[C@@H](CO)C(=O)N[C@@H](CC(C)C)C(=O)N[C@@H](CO)C(=O)N[C@@H](CO)C(=O)N[C@@H](CCC(=O)O)C(=O)N[C@@H](CO)C(=O)N[C@H](C(=O)N[C@@H](C)C(=O)N[C@H](C(=O)N[C@@H](CO)C(=O)N1CCC[C@H]1C(=O)N[C@H](C(=O)O)C(C)C)[C@@H](C)O)[C@@H](C)O)C(C)C', 'PSG G322A G335A (PSD-95)', 880),
  ('CC[C@H](C)[C@H](NC(=O)[C@H](CCC(=O)O)NC(=O)[C@H](CCC(=O)O)NC(=O)[C@@H](NC(=O)[C@@H](NC(=O)[C@H](CO)NC(=O)[C@H](CCC(=O)O)NC(=O)[C@H](Cc1ccc(O)cc1)NC(C)=O)[C@@H](C)O)[C@@H](C)O)C(=O)N[C@@H](CCC(=O)O)C(=O)N[C@@H](CC(C)C)C(=O)N[C@@H](CCC(=O)O)C(=O)N[C@@H](CC(=O)O)C(=O)N[C@H](C(=O)N[C@@H](CCC(=O)O)C(=O)N[C@@H](CS)C(=O)O)C(C)C', 'PSG G322A G335A (PSD-95)', 73),
  ('CSCC[C@H](NC(=O)[C@H](CO)NC(=O)[C@H](Cc1ccc(O)cc1)NC(=O)[C@H](CC(C)C)NC(=O)[C@H](Cc1ccc(O)cc1)NC(=O)[C@H](Cc1ccc(O)cc1)NC(=O)[C@H](Cc1ccccc1)NC(=O)[C@H](Cc1ccc(O)cc1)NC(C)=O)C(=O)N[C@H](C(=O)N[C@@H](Cc1ccc(O)cc1)C(=O)N[C@H](C(=O)N[C@@H](CC(C)C)C(=O)N[C@H](C(=O)N[C@@H](CO)C(=O)N[C@@H](Cc1ccccc1)C(=O)O)C(C)C)[C@@H](C)O)C(C)C', 'PSG G322A G335A (PSD-95)', 727);

From: paper PMC9490041
